relative viability overview
Test system: HCC-15
ASSAY TEXT: relative viability (nuclei count vs DMSO), 5 days (fraction); higher = more cells survive
TEST SETTINGS: first compound 0.253 µM
API doc: respond with a numeric literal and nothing else, no unit.

Below, each entry is followed by its recorded relative viability result.
[
  {
    "COMPOUND": "O=c1[nH]c2ccccc2n1C1CCN(CCCC(c2ccc(F)cc2)c2ccc(F)cc2)CC1 [Pimozide] + NC(=O)Nc1cc(-c2cccc(F)c2)sc1C(=O)N[C@H]1CCCNC1 [AZD7762] (partner 0.2 µM)",
    "relative viability": 0.545
  },
  {
    "COMPOUND": "O=c1[nH]c2ccccc2n1C1CCN(CCCC(c2ccc(F)cc2)c2ccc(F)cc2)CC1 [Pimozide] + N=C(N)NC(=N)NCCc1ccccc1 [Phenformin] (partner 250 µM)",
    "relative viability": 0.431
  },
  {
    "COMPOUND": "Cc1cnc(-c2cnc(NCCNc3ccc(C#N)cn3)nc2-c2ccc(Cl)cc2Cl)[nH]1 + CCNC(=O)c1noc(-c2cc(C(C)C)c(O)cc2O)c1-c1ccc(CN2CCOCC2)cc1 [Luminespib] (partner 0.01 µM)",
    "relative viability": 0.217
  }
]

Notebook: O=c1[nH]c2ccccc2n1C1CCN(CCCC(c2ccc(F)cc2)c2ccc(F)cc2)CC1 [Pimozide] + CC(C)C[C@H](NC(=O)[C@H](Cc1ccccc1)NC(=O)c1cnccn1)B(O)O [Bortezomib] (partner 0.002 µM) , relative viability read as 0.994

Notebook: Cc1cnc(-c2cnc(NCCNc3ccc(C#N)cn3)nc2-c2ccc(Cl)cc2Cl)[nH]1 + CC(C)C[C@H](NC(=O)[C@H](Cc1ccccc1)NC(=O)c1cnccn1)B(O)O [Bortezomib] (partner 0.002 µM) , relative viability read as 0.575

---

relative viability overview
Test system: NCI-H1395
ASSAY TEXT: relative viability (nuclei count vs DMSO), 5 days (fraction); higher = more cells survive
TEST SETTINGS: first compound 0.8 µM

Below, each entry is followed by its recorded relative viability result.
[
  {
    "COMPOUND": "O=c1[nH]c2ccccc2n1C1CCN(CCCC(c2ccc(F)cc2)c2ccc(F)cc2)CC1 [Pimozide] + Nc1ncn([C@H]2C[C@H](O)[C@@H](CO)O2)c(=O)n1 [Decitabine] (partner 2 µM)",
    "relative viability": 0.633
  },
  {
    "COMPOUND": "O=c1[nH]c2ccccc2n1C1CCN(CCCC(c2ccc(F)cc2)c2ccc(F)cc2)CC1 [Pimozide] + C[C@]1(O)C[C@@H](c2nc(-c3ccc4ccc(-c5ccccc5)nc4c3)c3c(N)nccn32)C1 [Linsitinib] (partner 1 µM)",
    "relative viability": 1.07
  },
  {
    "COMPOUND": "Cc1cnc(-c2cnc(NCCNc3ccc(C#N)cn3)nc2-c2ccc(Cl)cc2Cl)[nH]1 + O=C(c1cc(Cc2n[nH]c(=O)c3ccccc23)ccc1F)N1CCN(C(=O)C2CC2)CC1 [Olaparib] (partner 8 µM)",
    "relative viability": 0.504
  },
  {
    "COMPOUND": "O=c1[nH]c2ccccc2n1C1CCN(CCCC(c2ccc(F)cc2)c2ccc(F)cc2)CC1 [Pimozide] + O=C(c1cc(Cc2n[nH]c(=O)c3ccccc23)ccc1F)N1CCN(C(=O)C2CC2)CC1 [Olaparib] (partner 8 µM)",
    "relative viability": 0.475
  },
  {
    "COMPOUND": "Cc1cnc(-c2cnc(NCCNc3ccc(C#N)cn3)nc2-c2ccc(Cl)cc2Cl)[nH]1 + O=C(CCCCCCC(=O)Nc1ccccc1)NO [Vorinostat] (partner 1 µM)",
    "relative viability": 0.62
  }
]

Notebook: Cc1cnc(-c2cnc(NCCNc3ccc(C#N)cn3)nc2-c2ccc(Cl)cc2Cl)[nH]1 + COc1cc2c(Oc3ccc(NC(=O)C4(C(=O)Nc5ccc(F)cc5)CC4)cc3F)ccnc2cc1OCCCN1CCOCC1 [Foretinib] (partner 0.25 µM) , relative viability read as 1.02

Notebook: O=c1[nH]c2ccccc2n1C1CCN(CCCC(c2ccc(F)cc2)c2ccc(F)cc2)CC1 [Pimozide] + Cc1cc(Nc2cc(N3CCN(C)CC3)nc(Sc3ccc(NC(=O)C4CC4)cc3)n2)n[nH]1 [Tozasertib] (partner 0.1 µM) , relative viability read as 0.617

Notebook: Cc1cnc(-c2cnc(NCCNc3ccc(C#N)cn3)nc2-c2ccc(Cl)cc2Cl)[nH]1 + CS(=O)(=O)CCNCc1ccc(-c2ccc3ncnc(Nc4ccc(OCc5cccc(F)c5)c(Cl)c4)c3c2)o1 [Lapatinib] (partner 2 µM) , relative viability read as 1.07

Notebook: Cc1cnc(-c2cnc(NCCNc3ccc(C#N)cn3)nc2-c2ccc(Cl)cc2Cl)[nH]1 + Nc1nc2[nH]cc(CCc3ccc(C(=O)N[C@@H](CCC(=O)O)C(=O)O)cc3)c2c(=O)[nH]1 [Pemetrexed] (partner 0.2 µM) , relative viability read as 0.826

---

relative viability overview
Test system: CAL-12T
ASSAY TEXT: relative viability (nuclei count vs DMSO), 5 days (fraction); higher = more cells survive
TEST SETTINGS: first compound 0.0002 µM
API doc: respond with a numeric literal and nothing else, no unit.

[
  {
    "COMPOUND": "CC(=O)O[C@@]12CO[C@@H]1C[C@H](O)[C@@]1(C)C(=O)[C@H](O)C3=C(C)[C@@H](OC(=O)[C@H](O)[C@@H](NC(=O)OC(C)(C)C)c4ccccc4)C[C@@](O)([C@@H](OC(=O)c4ccccc4)[C@H]21)C3(C)C [Docetaxel] + COc1cc2c(Oc3ccc(NC(=O)C4(C(=O)Nc5ccc(F)cc5)CC4)cc3F)ccnc2cc1OCCCN1CCOCC1 [Foretinib] (partner 0.25 µM)",
    "relative viability": 0.979
  },
  {
    "COMPOUND": "CC(=O)O[C@@]12CO[C@@H]1C[C@H](O)[C@@]1(C)C(=O)[C@H](O)C3=C(C)[C@@H](OC(=O)[C@H](O)[C@@H](NC(=O)OC(C)(C)C)c4ccccc4)C[C@@](O)([C@@H](OC(=O)c4ccccc4)[C@H]21)C3(C)C [Docetaxel] + CS(=O)(=O)CCNCc1ccc(-c2ccc3ncnc(Nc4ccc(OCc5cccc(F)c5)c(Cl)c4)c3c2)o1 [Lapatinib] (partner 2 µM)",
    "relative viability": 0.757
  }
]

Reported CAL-12T relative viability for item CC(=O)O[C@@]12CO[C@@H]1C[C@H](O)[C@@]1(C)C(=O)[C@H](O)C3=C(C)[C@@H](OC(=O)[C@H](O)[C@@H](NC(=O)OC(C)(C)C)c4ccccc4)C[C@@](O)([C@@H](OC(=O)c4ccccc4)[C@H]21)C3(C)C [Docetaxel] + O=C(c1cc(Cc2n[nH]c(=O)c3ccccc23)ccc1F)N1CCN(C(=O)C2CC2)CC1 [Olaparib] (partner 8 µM) was 0.591

Reported CAL-12T relative viability for item CC(=O)O[C@@]12CO[C@@H]1C[C@H](O)[C@@]1(C)C(=O)[C@H](O)C3=C(C)[C@@H](OC(=O)[C@H](O)[C@@H](NC(=O)OC(C)(C)C)c4ccccc4)C[C@@](O)([C@@H](OC(=O)c4ccccc4)[C@H]21)C3(C)C [Docetaxel] + C[C@]1(O)C[C@@H](c2nc(-c3ccc4ccc(-c5ccccc5)nc4c3)c3c(N)nccn32)C1 [Linsitinib] (partner 1 µM) was 0.725

---

Tested on: HARA
ASSAY TEXT: relative viability (nuclei count vs DMSO), 5 days (fraction); higher = more cells survive
TEST SETTINGS: first compound 0.1265 µM
MEASUREMENT KIND: relative viability
API doc: respond with a numeric literal and nothing else, no unit.

Below, each entry is followed by its recorded relative viability result.
[
  {
    "MOLECULE": "Cc1sc2c(c1C)C(c1ccc(Cl)cc1)=N[C@@H](CC(=O)OC(C)(C)C)c1nnc(C)n1-2 [JQ1] + CC(=O)Nc1cccc(-n2c(=O)n(C3CC3)c(=O)c3c(Nc4ccc(I)cc4F)n(C)c(=O)c(C)c32)c1 [Trametinib] (partner 0.02 µM)",
    "NUMBER": 0.411
  },
  {
    "MOLECULE": "Cc1sc2c(c1C)C(c1ccc(Cl)cc1)=N[C@@H](CC(=O)OC(C)(C)C)c1nnc(C)n1-2 [JQ1] + CS(=O)(=O)CCNCc1ccc(-c2ccc3ncnc(Nc4ccc(OCc5cccc(F)c5)c(Cl)c4)c3c2)o1 [Lapatinib] (partner 2 µM)",
    "NUMBER": 0.559
  },
  {
    "MOLECULE": "Cc1sc2c(c1C)C(c1ccc(Cl)cc1)=N[C@@H](CC(=O)OC(C)(C)C)c1nnc(C)n1-2 [JQ1] + COc1cc2c(Oc3ccc(NC(=O)C4(C(=O)Nc5ccc(F)cc5)CC4)cc3F)ccnc2cc1OCCCN1CCOCC1 [Foretinib] (partner 0.25 µM)",
    "NUMBER": 0.647
  }
]

Turning now to a further molecule:
Notebook: Cc1sc2c(c1C)C(c1ccc(Cl)cc1)=N[C@@H](CC(=O)OC(C)(C)C)c1nnc(C)n1-2 [JQ1] + Nc1ncn([C@H]2C[C@H](O)[C@@H](CO)O2)c(=O)n1 [Decitabine] (partner 2 µM) , relative viability read as 0.49
